experimentalSystem: T1, recombinant tetanus toxin fragment C (rTTC) (Clostridium tetani, UniProt P04958 865-1315)
T1 sequence: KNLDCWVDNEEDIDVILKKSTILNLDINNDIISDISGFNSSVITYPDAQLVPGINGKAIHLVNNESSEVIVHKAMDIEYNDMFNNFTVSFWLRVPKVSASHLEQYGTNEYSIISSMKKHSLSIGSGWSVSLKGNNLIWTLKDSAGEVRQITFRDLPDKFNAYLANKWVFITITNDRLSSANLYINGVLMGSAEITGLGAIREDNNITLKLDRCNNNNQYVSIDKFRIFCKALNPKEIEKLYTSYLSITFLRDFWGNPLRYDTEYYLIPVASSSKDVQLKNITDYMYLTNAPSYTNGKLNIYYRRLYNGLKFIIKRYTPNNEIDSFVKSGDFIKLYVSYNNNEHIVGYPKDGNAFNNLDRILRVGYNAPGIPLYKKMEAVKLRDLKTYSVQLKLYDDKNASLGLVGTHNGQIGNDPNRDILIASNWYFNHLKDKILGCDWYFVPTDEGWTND
assayProcedure: ELISA, directly coated rTTC
measurementLabel: binding result

binder="SVT03L (VHH, yeast-produced) VHH: QVQLQQSGGGSVQTGDSLTLSCTASGGSLNSYFVGWFRQSGGKEREFVSVIARTGRSTSYADSVKGRFTISRDNAANTVFLTMNNLRPDDTAIYYCAAVGRPGVLHLTQSYDYWGQGTQVTVSS" recordedresult="no binding"
binder="SVT02L (VHH, yeast-produced) VHH: QVQLQQSGGGSVQAGGSLRLSCVGPQRTFSTYGMGWFRQAPGKEREFVAGINYKGDTTYYADSVKGRFTISRDNAKNTLYLQMDSLKPEDRAVYQCARKGGLGGDYRDAGQYRYWGQGTQVTVSS" recordedresult="no binding"
